Biological target: Protein translocase subunit SecA (Escherichia coli (strain K12)) (UniProt P10408)
Sequence (P10408 whole entry): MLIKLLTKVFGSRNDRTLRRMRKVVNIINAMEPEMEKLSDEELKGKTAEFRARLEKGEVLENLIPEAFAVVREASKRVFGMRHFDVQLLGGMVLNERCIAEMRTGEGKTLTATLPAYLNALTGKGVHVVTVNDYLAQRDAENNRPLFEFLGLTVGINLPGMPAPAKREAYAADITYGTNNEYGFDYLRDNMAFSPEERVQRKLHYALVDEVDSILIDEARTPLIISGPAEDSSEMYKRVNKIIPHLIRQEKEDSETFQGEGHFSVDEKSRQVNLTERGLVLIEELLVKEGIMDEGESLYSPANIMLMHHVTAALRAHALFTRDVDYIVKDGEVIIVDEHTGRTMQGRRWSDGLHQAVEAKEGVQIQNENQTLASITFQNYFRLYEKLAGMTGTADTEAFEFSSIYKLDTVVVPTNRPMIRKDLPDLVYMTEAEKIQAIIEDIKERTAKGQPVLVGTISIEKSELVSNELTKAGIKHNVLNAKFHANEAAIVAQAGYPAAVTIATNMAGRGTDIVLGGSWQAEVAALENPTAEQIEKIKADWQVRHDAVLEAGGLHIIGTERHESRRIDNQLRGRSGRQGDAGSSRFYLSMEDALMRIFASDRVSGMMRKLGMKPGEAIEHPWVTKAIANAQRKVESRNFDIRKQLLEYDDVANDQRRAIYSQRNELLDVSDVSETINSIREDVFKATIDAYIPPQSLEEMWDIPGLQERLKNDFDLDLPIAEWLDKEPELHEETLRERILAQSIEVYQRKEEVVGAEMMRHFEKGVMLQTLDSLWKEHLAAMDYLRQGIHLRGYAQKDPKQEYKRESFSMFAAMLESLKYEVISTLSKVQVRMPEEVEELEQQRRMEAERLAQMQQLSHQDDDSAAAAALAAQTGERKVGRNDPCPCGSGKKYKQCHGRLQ
Test: Assay to Identify E. coli SecA ATPase Inhibitors
Format: functional
Parameters: scale not given: direction of the effect not stated beside the values
Conditions: 30 µM
Results with a measured potency or affinity are listed apart.
Reported Endpoint: Percent Effect (%)
All answers are understood in %, so give the number only.

Some compounds with known Percent Effect results, for comparison:
[[record]]
compound = "Cc1nc(CN2CCN(CC(=O)Nc3c(C)cccc3C)CC2)no1"
obs_value = -3.96

[[record]]
compound = "COc1ccc(Cl)cc1C(=O)N1CCOC2(CNCCOC2)C1 (stereo not given)"
obs_value = -5.73


Enter Percent Effect (test system Protein translocase subunit SecA (Escherichia coli (strain K12)) (UniProt P10408)) for CN1CC(=O)N(c2cccc(F)c2)CC12CCN(S(C)(=O)=O)C2 (stereo not given)
-4.45

// fetch Percent Effect; item: `O=c1c2ccccc2nc2n1CCN(Cc1cccs1)CC2` ; system: Protein translocase subunit SecA (Escherichia coli (strain K12)) (UniProt P10408)
-2.59

Report Percent Effect on Protein translocase subunit SecA (Escherichia coli (strain K12)) (UniProt P10408) for this entry: `CC(C)c1nn(C)c(N2CCOCC2)c1CN[C@H](C)CO`
-5.92

Provide measured Percent Effect on Protein translocase subunit SecA (Escherichia coli (strain K12)) (UniProt P10408) for CC(NC(=O)NCCCO)c1ccc2c(c1)OCCO2 (stereo not given) please.
-1.5

Recall the reported Percent Effect of CN(C)c1ccc(CCNC(=O)C2CCC(=O)N(C3CCCC3)C2)cc1 (stereo not given) on Protein translocase subunit SecA (Escherichia coli (strain K12)) (UniProt P10408) and write it down.
-4.96

Please look at O=C(NCCCO)C1CC(=O)N(c2n[nH]c3cccc(F)c23)C1 (stereo not given) and tell me its recorded Percent Effect on Protein translocase subunit SecA (Escherichia coli (strain K12)) (UniProt P10408).
0.204

# return Percent Effect for Cc1nn(C)cc1CNC(=O)c1cn(CCC2CCCCN2)nn1 (stereo not given) , test system: Protein translocase subunit SecA (Escherichia coli (strain K12)) (UniProt P10408)
-3.59

Report value only: Percent Effect, Protein translocase subunit SecA (Escherichia coli (strain K12)) (UniProt P10408), O=C1N(Cc2cccc(F)c2F)CCCC1(O)CNC1CCCC1 (stereo not given)
-6.14

Under Protein translocase subunit SecA (Escherichia coli (strain K12)) (UniProt P10408), report Percent Effect for `OCCOc1nc(-c2ccccc2Cl)no1`
-1.86

* * *

Molecular target: Chromo domain-containing protein 1 (Saccharomyces cerevisiae (strain ATCC 204508 / S288c) (Baker's yeast))
Experiment: ScCHD-1 Enzyme Inhibition Assay; note: in the data most compounds retested in dose-response had high values
Assay type: functional
Parameters: scale not given: direction of the effect not stated beside the values
Conditions: 30 µM
# Percent Effect per entry
Use % as the unit, but write only the number.

[[record]]
compound = "CCc1ccccc1C(=O)N1CCN(S(C)(=O)=O)[C@@H](C)C1"
reported_endpoint = "Percent Effect"
obs_value = -1.37


Give recorded Percent Effect. CC(C)c1nc(CN(C)C2CCN(CC(F)(F)F)C2)no1 (stereo unspecified)
-1.35

Please list Percent Effect recorded for the compound CN(Cc1ccc(F)cc1)CC1(O)CCCN(CC(C)(C)C)C1=O (stereo unspecified)
0.558

Find the measured Percent Effect of `CCc1cccc(NS(=O)(=O)c2cc3c(c(C(=O)O)c2)OCCO3)c1` and report it.
-30.6

Note down Percent Effect recorded for `COc1ccc(Br)c(C(=O)NCC2CCN(S(=O)(=O)C3CC3)CC2)c1`
-9.38

Identify measured Percent Effect corresponding to CCn1cc(NC(=O)NCC(O)COc2cccc(F)c2)cn1 (stereo unspecified)
-8.89

Read off the recorded Percent Effect for `Cc1ccc(C#N)c(N2CCC(c3nccn3CCN(C)C)CC2)n1`
-8.91

* * *

Species: Homo sapiens
Test: To identify inhibition of the IFN signalling (Jak-Stat) pathway via expression of an eGFP reporter gene under the control of an IFN-stimulated response element (ISRE) containing MxA promoter.
Type: functional
Parameters: scale not given: direction of the effect not stated beside the values
Conditions: 30 µM
Form field: Percent Effect (one value per entry).
Please provide the amount together with its unit, number first.

[[record]]
compound = "O=S(=O)(NC1=NCN(CCc2cccs2)CN1)c1ccc(F)cc1"
obs_value = "-6.32%"

[[record]]
compound = "COc1cc(C)nc(N2CCN(Cc3nccn3C)CC2)n1"
obs_value = "0.819%"

[[record]]
compound = "O=C(c1ccoc1)N1CC[C@H]2OCC[C@@]2(COc2ncccc2F)C1"
obs_value = "-2.11%"

[[record]]
compound = "CCc1nccc(CN2CCCC(c3nn(C)c(=O)n3CC)C2)n1 (centres undefined)"
obs_value = "2.84%"

[[record]]
compound = "O=C(NCCN1CCOCC1)NCc1ncc(-c2ccccc2)o1"
obs_value = "19.1%"


Provide Percent Effect value for the following compound: `CN(CCNC(=O)NCc1ccncc1)C1CCCC1`
7.43%

Report Percent Effect for `CNC(=O)N1C[C@H]2CC[C@@]3(N=C(c4ccccc4)NC3=O)[C@H]2C1`
12.9%

Annotate the compound CC(C(=O)Nc1ccc(N2CCCC2)nc1)n1cncn1 (centres undefined) with its measured Percent Effect.
19.2%

Read off the recorded Percent Effect for O=C1CC2(CCN(S(=O)(=O)C3CC3)C2)CN1c1cncnc1 (centres undefined)
5.32%

For the compound `CN(C)c1ncc(CN2CCC(c3nnsc3S(C)(=O)=O)CC2)cn1` , report Percent Effect.
12.1%

* * *

Known Percent Effect of a selection of molecules
Target: Ubiquitin-activating enzyme e1, putative (Leishmania donovani (strain BPK282A1)) (UniProt E9BSI1)
Sequence (E9BSI1 as listed by the source): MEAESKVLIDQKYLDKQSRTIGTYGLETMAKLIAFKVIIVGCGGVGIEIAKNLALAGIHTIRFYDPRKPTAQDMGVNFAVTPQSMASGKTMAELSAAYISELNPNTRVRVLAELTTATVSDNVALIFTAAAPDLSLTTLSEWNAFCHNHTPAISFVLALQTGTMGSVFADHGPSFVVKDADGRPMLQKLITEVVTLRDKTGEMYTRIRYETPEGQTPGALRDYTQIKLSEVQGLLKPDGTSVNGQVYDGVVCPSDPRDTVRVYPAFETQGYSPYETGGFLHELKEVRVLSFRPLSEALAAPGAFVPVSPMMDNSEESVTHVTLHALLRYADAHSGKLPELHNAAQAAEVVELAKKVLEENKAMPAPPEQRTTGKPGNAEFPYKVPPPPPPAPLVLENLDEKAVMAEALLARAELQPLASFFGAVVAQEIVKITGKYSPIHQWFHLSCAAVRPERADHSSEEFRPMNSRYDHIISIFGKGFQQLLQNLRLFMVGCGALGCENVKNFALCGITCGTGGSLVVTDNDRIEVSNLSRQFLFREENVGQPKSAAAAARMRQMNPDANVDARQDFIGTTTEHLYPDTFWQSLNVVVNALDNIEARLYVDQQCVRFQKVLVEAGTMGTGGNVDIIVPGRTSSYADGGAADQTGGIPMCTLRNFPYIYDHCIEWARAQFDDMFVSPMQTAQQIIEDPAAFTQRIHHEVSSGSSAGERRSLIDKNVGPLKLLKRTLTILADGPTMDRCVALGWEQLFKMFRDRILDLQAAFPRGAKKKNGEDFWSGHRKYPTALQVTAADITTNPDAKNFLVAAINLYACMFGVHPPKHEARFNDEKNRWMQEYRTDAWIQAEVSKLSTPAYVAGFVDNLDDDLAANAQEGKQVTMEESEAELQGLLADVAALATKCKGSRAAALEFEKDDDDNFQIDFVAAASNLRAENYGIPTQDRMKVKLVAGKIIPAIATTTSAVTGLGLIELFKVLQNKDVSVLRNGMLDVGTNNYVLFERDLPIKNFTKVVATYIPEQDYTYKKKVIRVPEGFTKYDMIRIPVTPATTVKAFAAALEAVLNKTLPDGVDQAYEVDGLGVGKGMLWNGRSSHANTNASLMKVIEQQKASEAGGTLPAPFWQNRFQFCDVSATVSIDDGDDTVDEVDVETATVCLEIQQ
Test: Leishmania donovani Ubiquitin Activating Enzyme (LdE1)
Format: functional
Set-up: scale not given: direction of the effect not stated beside the values
Settings: 30 µM
Entries with a potency or affinity are not part of this list.
Number only, in %; omit the unit.

Sample answers from the record:
[[record]]
molecule = "CC(OCC(F)(F)F)C(=O)Nc1ccc(-n2cncn2)nc1 (stereo unspecified)"
obs_value = 2.6

[[record]]
molecule = "Cc1noc(C)c1-c1cccc(CC2CCN(C(=O)CCC(=O)O)C2)n1 (stereo unspecified)"
obs_value = 6.76

[[record]]
molecule = "Cc1cccc(-c2nc(C)nn2CC(=O)NC2CCCC2)c1"
obs_value = 23.4

[[record]]
molecule = "O=C(O)C1(Cc2cccc(-c3ccc(F)c(F)c3)c2)CCOCC1"
obs_value = 1.35

[[record]]
molecule = "O=C(Cn1ccc2ccc(Br)cc21)NC[C@@H]1CCCN2CCCC[C@H]12"
obs_value = -4


Provide one value: measured Percent Effect of Cc1ccccc1CN1CCC(NCC2CNc3ccnn3C2)CC1 (stereo unspecified)
0

* * *

Biological target: Protein translocase subunit SecA (Escherichia coli (strain K12))
Assay: Assay to Identify E. coli SecA ATPase Inhibitors
Type: functional
Parameters: scale not given: direction of the effect not stated beside the values
Conditions: 30 µM
Measured potencies and affinities stand elsewhere.
Reported Endpoint: Percent Effect (%)
Supply the numeric figure in %, leaving out any unit text.

[[record]]
molecule = "CCN(C(=O)COC)C(c1cccnc1)c1ccc2c(c1)CCO2 (stereo unspecified)"
obs_value = 2.93

[[record]]
molecule = "Cc1cn2c(n1)CCC(NC(=O)c1cnc(C)nc1C(C)C)C2 (stereo unspecified)"
obs_value = -4.68

[[record]]
molecule = "COc1ccccc1OC1(C(=O)O)CCN(c2nccnc2C)CC1"
obs_value = -2.61


State its Percent Effect: `c1ccc(-c2ccc3nc(C4CCN(CC5CC5)CC4)nn3c2)cc1`
4.34

Look up and report measured Percent Effect for this entry: Cc1ccc(NC(=O)NC(C)c2nc[nH]n2)s1 (stereo unspecified)
-7.16

* * *

Biological target: Sialic acid-binding Ig-like lectin 9 (Homo sapiens)
Assay: Hs-Siglec9 ALPHAscreen SOP 20170721
Parameters: scale not given: direction of the effect not stated beside the values
Conditions: 10 µM
Reported Endpoint: Percent Effect (%)
Report the value in % with no unit label.

Here is how some compounds turned out for Percent Effect.
[[record]]
compound = "COc1ccc(C(=O)N2CCCC2c2ccco2)cc1OC (centres undefined)"
target_system = "Sialic acid-binding Ig-like lectin 9 (Homo sapiens)"
value_unit = "%"
obs_value = -11.9

[[record]]
compound = "c1cc(OCc2ccc3c(c2)OCCO3)ccc1CNC1CC1"
target_system = "Sialic acid-binding Ig-like lectin 9 (Homo sapiens)"
value_unit = "%"
obs_value = -13.3

[[record]]
compound = "Cc1nc(CN2CCCC(NCCOCC(F)(F)F)C2)no1 (centres undefined)"
target_system = "Sialic acid-binding Ig-like lectin 9 (Homo sapiens)"
value_unit = "%"
obs_value = 0.79


Consider the compound `CN(Cc1ccc(Cl)s1)C(=O)NCc1nnc2n1CCC2` and give its recorded Percent Effect.
-10.7

Return Percent Effect (reported value) for this compound: `Cc1cnc(N2C[C@H]3C[C@H](C(=O)N(C)C)[C@@H](C2)O3)nc1`
-2.75

Given the compound `O=C(N1CCOCC1)N1CCc2ncnc(NC3CC3)c2CC1` , write its reported Percent Effect.
-5.96

For the compound O=C1NCC2(CCCN(Cc3ccccc3F)C2)Oc2ccccc21 (centres undefined) , give its reported Percent Effect.
-6.32

Return Percent Effect (reported value) for this compound: O=C(NCCCn1cccn1)N1CCCC1c1ccncc1 (centres undefined)
0.781
